# study.target: SHP2-C SH2
# protocol.details: SH2 binding enrichment of the phosphorylated peptide, bacterial display (enrichment ratio); higher = better substrate or ligand; peptides without Tyr show the background
Answer each item with its documented SH2 binding enrichment.
Answers are plain numbers.

Could you tell me which SH2 binding enrichment is on file for LLANAYIFVVQ [L1CAM_Y418_YF] ? 0.605

Could you tell me which SH2 binding enrichment is on file for NAMRRYIEEFQ [MNS1_Y244] ? 0.585

Could you tell me which SH2 binding enrichment is on file for GSERDYTFEEL [EIF2S2_Y174_YF] ? 0.583

Now look at this one.
Could you tell me which SH2 binding enrichment is on file for NTYEKYLEEEY [TF_Y669_G671E] ? 0.607

----------
Answer each item with its documented phosphorylation enrichment.
# study.target: MERTK (UniProt Q12866)
# Sequence (Q12866 whole entry, looked up): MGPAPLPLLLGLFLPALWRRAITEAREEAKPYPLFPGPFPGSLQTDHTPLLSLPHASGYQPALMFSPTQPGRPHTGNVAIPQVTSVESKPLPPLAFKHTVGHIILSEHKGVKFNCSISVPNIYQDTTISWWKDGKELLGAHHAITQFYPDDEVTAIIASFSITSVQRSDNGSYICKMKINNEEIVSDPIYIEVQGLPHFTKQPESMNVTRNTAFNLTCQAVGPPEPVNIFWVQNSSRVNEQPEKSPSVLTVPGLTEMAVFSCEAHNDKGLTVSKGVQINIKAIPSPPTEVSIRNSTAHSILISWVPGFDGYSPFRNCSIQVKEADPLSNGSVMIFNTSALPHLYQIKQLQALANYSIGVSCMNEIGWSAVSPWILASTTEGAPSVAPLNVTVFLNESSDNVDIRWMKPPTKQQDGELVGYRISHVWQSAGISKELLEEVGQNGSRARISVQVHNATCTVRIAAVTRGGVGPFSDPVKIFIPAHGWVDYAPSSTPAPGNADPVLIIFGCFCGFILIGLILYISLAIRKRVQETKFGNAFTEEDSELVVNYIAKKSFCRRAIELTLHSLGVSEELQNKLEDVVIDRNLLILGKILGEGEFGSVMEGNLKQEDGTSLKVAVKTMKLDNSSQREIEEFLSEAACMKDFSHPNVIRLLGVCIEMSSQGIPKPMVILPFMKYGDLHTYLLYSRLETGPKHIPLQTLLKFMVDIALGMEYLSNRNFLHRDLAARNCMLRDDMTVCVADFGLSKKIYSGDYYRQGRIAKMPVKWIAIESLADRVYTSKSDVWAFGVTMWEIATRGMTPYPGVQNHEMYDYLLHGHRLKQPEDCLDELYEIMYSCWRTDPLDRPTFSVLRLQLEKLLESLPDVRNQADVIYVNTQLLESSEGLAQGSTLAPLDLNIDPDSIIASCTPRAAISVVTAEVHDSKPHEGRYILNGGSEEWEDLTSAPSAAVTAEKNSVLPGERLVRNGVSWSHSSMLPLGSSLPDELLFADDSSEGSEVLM
# protocol.details: phosphorylation enrichment, bacterial display (enrichment ratio); higher = better substrate or ligand; peptides without Tyr show the background
One number for each entry.

Could you tell me which phosphorylation enrichment is on file for GGYNNYGYGSD [HNRNPH3_Y159_N163S] ? 0.479

Could you tell me which phosphorylation enrichment is on file for DEDFLYREELA [POR_Y575_YF] ? 0.489

Could you tell me which phosphorylation enrichment is on file for MKGDFYCFLAE [YWHAG_Y131_R132C_YF] ? 2.81

Could you tell me which phosphorylation enrichment is on file for KTDKKYLMIEE [BAG3_Y451] ? 0.424

Could you tell me which phosphorylation enrichment is on file for KVGPGSLGSGG [RET_Y826_Y826S] ? 0.3

Could you tell me which phosphorylation enrichment is on file for MEVGQYFFVKC [CYBB_Y324_I325F] ? 1.13

Hello, I would appreciate it if you could give phosphorylation enrichment for each entry below.
1. KVALVYGQMNE [ATP5F1B_Y269]
2. FGVVGYLAIMF [RNF175_Y155]
3. MFCAGYDTKQE [F10_Y407]
4. GPGLVYRVANK [FLNB_Y1833_G1834R]

[0.38, 0.532, 0.48, 0.399]

----------
# study.target: FGFR1 (UniProt P11362)
# Sequence (P11362 whole entry, looked up): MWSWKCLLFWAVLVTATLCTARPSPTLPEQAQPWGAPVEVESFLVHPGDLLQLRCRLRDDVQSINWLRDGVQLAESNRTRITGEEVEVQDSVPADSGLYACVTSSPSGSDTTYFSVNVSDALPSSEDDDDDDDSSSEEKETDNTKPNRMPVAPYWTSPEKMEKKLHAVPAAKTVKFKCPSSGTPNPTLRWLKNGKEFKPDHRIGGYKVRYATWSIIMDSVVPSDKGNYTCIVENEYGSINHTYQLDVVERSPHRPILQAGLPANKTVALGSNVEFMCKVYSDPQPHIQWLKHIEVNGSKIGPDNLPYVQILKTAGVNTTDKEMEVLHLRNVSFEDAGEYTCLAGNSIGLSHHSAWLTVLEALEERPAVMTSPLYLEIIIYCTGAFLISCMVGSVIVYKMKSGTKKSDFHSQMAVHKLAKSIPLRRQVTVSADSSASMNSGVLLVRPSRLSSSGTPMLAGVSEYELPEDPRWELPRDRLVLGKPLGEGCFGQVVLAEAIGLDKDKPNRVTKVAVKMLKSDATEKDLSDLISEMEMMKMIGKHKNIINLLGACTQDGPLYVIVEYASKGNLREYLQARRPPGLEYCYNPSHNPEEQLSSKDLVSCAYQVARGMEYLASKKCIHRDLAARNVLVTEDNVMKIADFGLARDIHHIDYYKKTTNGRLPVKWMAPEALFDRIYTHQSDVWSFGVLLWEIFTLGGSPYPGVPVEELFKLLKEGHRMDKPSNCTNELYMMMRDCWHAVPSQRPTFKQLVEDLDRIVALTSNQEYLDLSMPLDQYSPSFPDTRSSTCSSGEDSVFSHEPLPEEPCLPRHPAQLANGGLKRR
# protocol.details: phosphorylation enrichment, bacterial display (enrichment ratio); higher = better substrate or ligand; peptides without Tyr show the background
Answer each item with its documented phosphorylation enrichment.
Numbers only.

Could you tell me which phosphorylation enrichment is on file for MPVDGYISGLL [PAK6_Y81] ? 0.583

Hello, I would appreciate it if you could give phosphorylation enrichment for each entry below.
1. FCRITYDIFPF [INTS13_Y67_M66T_YF]
2. PEADKYCLTYA [FGG_Y300_R301C]
3. PGPQSYPIVTG [PAX5_Y299]
4. SSNPEYLSASD [INSR_Y999]
5. KDQGIYEDYVE [MYL6_Y86_T85I]
6. EAVSIYQFHGQ [CBLC_Y402]

0.514
0.486
0.504
0.498
0.58
0.554

Hello, I would appreciate it if you could give phosphorylation enrichment for each entry below.
1. FGMQLYQNFMH [GRB14_Y347_YF]
2. CLAQRYLIWEC [SCN5A_Y694_R689C]

1. 0.544
2. 0.693

----------
# study.target: Fes (UniProt P07332)
# Sequence (P07332 whole entry, looked up): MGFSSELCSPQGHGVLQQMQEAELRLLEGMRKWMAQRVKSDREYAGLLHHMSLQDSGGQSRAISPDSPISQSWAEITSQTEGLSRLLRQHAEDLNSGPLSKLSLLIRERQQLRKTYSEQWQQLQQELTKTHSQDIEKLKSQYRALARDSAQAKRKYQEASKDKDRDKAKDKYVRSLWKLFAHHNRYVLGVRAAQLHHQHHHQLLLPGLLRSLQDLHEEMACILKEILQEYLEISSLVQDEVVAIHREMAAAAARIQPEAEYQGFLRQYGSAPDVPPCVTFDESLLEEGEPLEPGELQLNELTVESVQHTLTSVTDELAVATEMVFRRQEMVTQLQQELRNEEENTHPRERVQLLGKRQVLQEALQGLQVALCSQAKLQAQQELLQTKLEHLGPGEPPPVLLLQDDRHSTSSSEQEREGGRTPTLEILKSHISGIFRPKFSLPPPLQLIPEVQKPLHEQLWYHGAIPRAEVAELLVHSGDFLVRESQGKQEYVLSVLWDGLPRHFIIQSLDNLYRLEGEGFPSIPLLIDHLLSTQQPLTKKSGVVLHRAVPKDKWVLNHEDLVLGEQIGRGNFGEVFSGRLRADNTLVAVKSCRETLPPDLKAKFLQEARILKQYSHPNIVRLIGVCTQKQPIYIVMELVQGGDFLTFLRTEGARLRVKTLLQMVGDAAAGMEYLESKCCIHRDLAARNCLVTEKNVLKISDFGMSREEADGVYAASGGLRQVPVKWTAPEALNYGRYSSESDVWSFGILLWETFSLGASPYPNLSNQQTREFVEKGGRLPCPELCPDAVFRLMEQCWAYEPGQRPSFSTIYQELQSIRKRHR
# protocol.details: phosphorylation enrichment, bacterial display (enrichment ratio); higher = better substrate or ligand; peptides without Tyr show the background
Classes are defined on phosphorylation enrichment with ranges low group (below 0.8), middle group (0.8 to below 1), high group (1 or more)

Use the examples below as a reference point.
# bin lookup: classify HLLRIYFDITD [MMP27_Y307_W304L_YF] by its phosphorylation enrichment high group

# bin lookup: classify MTYVFYRENLR [NLRP14_Y443] by its phosphorylation enrichment high group

# bin lookup: classify YPSLPYSPVSS [CAMKK2_Y128_C123Y] by its phosphorylation enrichment low group

# bin lookup: classify FSPPFYHRNCM [HGD_Y334_R330S_YF] by its phosphorylation enrichment middle group

# bin lookup: classify RGSQQYRALTV [TUBB8_Y281] by its phosphorylation enrichment low group

# bin lookup: classify SKHRLYSDLQT [PTCHD1_Y84] by its phosphorylation enrichment low group

# bin lookup: classify LEFGDCHPLKP [VPS35L_Y32_Y32C] by its phosphorylation enrichment high group

# bin lookup: classify KNCFKYYMSDD [ATRX_Y203] by its phosphorylation enrichment high group

Consider the record given below.
# bin lookup: classify NTGDDYDLFGG [PTPN11_Y63_Y62D_YF] by its phosphorylation enrichment high group

----------
# study.target: Fes (UniProt P07332)
# protocol.details: phosphorylation enrichment, bacterial display (enrichment ratio); higher = better substrate or ligand; peptides without Tyr show the background
Classes are defined on phosphorylation enrichment with ranges band 1: < 0.8; band 2: ≥ 0.8 and < 1; band 3: ≥ 1

# bin lookup: classify IDQDKYAVHFI [FLNA_Y2388_R2391H] by its phosphorylation enrichment band 2

# bin lookup: classify SVVVPYEPPED [TP53_Y220_V225D] by its phosphorylation enrichment band 3

# bin lookup: classify EVDELYREAPI [MYL12B_Y143] by its phosphorylation enrichment band 3

# bin lookup: classify VKANTYEKYWL [GATM_Y100_P105L] by its phosphorylation enrichment band 2

# bin lookup: classify SFGESYDNSKS [MAN1B1_Y60_N59S] by its phosphorylation enrichment band 2

# bin lookup: classify IITDYYVDMKF [MPP4_Y567_V562I] by its phosphorylation enrichment band 3

# bin lookup: classify PNAYIYVVQLP [L1CAM_Y420_A415P] by its phosphorylation enrichment band 3

# bin lookup: classify QADVVYVNTQL [MERTK_Y872_I871V] by its phosphorylation enrichment band 3

Further cases:
# bin lookup: classify QRTMKYTTATG [MCCC1_Y41] by its phosphorylation enrichment band 1

# bin lookup: classify FSGQVYRQRRK [TH_Y230_D227G] by its phosphorylation enrichment band 1

# bin lookup: classify ETGEPYRLSPE [EIF4G1_Y311] by its phosphorylation enrichment band 3

# bin lookup: classify DEENFYQGSME [ASCC1_Y36_D34N] by its phosphorylation enrichment band 3

# bin lookup: classify QNTGDYYDLYG [PTPN11_Y62] by its phosphorylation enrichment band 3

----------
Answer each item with its documented SH2 binding enrichment.
# study.target: c-Src SH2
# protocol.details: SH2 binding enrichment of the phosphorylated peptide, bacterial display (enrichment ratio); higher = better substrate or ligand; peptides without Tyr show the background
Give bare numbers.

Example cases with answers are listed next.
Could you tell me which SH2 binding enrichment is on file for DKGTLYIVEQI [PLBD1_Y375] ? 0.413

Could you tell me which SH2 binding enrichment is on file for KANEFYPVVII [ADAMTS18_Y765_L769I_YF] ? 0.349

Could you tell me which SH2 binding enrichment is on file for PTYKHYANSTQ [SLC12A3_Y70_E68K] ? 0.56

Further cases:
Could you tell me which SH2 binding enrichment is on file for KKHIPCREHKS [CSNK1G2_Y206_Y206C] ? 1.68

----------
# study.target: EPHB1 (UniProt P54762)
# Sequence (P54762 whole entry, looked up): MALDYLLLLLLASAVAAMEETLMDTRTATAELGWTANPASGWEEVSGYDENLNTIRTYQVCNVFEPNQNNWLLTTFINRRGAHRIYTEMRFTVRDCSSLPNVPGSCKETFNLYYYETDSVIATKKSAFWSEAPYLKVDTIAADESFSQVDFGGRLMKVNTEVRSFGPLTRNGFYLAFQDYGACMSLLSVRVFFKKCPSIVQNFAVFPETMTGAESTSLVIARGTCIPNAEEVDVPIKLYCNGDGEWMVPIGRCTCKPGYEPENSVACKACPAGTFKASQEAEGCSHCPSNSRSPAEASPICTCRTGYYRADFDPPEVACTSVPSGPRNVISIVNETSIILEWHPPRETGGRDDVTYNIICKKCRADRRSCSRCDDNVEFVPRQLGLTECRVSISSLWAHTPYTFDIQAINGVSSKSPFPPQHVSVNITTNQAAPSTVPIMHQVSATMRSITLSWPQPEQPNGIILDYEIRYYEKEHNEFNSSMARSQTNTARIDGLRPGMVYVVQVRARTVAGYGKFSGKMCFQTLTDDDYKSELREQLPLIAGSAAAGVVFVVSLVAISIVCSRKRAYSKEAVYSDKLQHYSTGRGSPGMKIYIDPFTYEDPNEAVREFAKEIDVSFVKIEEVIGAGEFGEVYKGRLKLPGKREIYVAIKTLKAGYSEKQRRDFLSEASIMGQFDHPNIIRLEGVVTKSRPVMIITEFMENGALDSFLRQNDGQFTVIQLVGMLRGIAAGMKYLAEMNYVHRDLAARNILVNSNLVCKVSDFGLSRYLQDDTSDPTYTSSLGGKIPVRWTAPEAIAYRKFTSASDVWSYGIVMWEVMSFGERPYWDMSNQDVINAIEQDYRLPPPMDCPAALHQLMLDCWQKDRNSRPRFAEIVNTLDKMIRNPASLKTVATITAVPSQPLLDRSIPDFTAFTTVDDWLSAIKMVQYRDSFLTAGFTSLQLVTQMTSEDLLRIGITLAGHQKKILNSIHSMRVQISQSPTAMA
# protocol.details: phosphorylation enrichment, bacterial display (enrichment ratio); higher = better substrate or ligand; peptides without Tyr show the background
property.label: phosphorylation enrichment
One number for each entry.

Example cases with answers are listed next.
Could you tell me which phosphorylation enrichment is on file for KRYRIYHLAIS [BRCA2_Y3009_T3013I] ? 0.37

Could you tell me which phosphorylation enrichment is on file for SVNIRYLLFPS [SERAC1_Y548] ? 0.714

Could you tell me which phosphorylation enrichment is on file for DHAGTYGLGDR [MAPT_Y18] ? 0.363

Could you tell me which phosphorylation enrichment is on file for ECKFLYSRKEG [PTPN11_Y263_L261F] ? 0.576

Could you tell me which phosphorylation enrichment is on file for RKQQLYIAMEE [CCDC39_Y593_T594I] ? 0.651

Hello, I would appreciate it if you could give phosphorylation enrichment for each entry below.
1. ILTYKYLQKPM [KIT_Y547]
2. SRFQFYFQQKG [CHKB_Y381]

1: 0.686; 2: 0.938

Hello, I would appreciate it if you could give phosphorylation enrichment for each entry below.
1. KKHIPCREHKS [CSNK1G2_Y206_Y206C]
2. HSGLAYTMERS [GLUD1_Y512]

[1.6, 0.897]

----------
# study.target: EPHB1 (UniProt P54762)
# protocol.details: phosphorylation enrichment, bacterial display (enrichment ratio); higher = better substrate or ligand; peptides without Tyr show the background
property.label: phosphorylation enrichment
One number for each entry.

Example cases with answers are listed next.
Could you tell me which phosphorylation enrichment is on file for SYCYRYRCAPR [SUMF1_Y344_A348P] ? 0.441

Could you tell me which phosphorylation enrichment is on file for FPKDVYVDSKD [NDUFAF4_Y69_L65P] ? 0.38

Could you tell me which phosphorylation enrichment is on file for EQSGSYIWVLA [DLG1_Y895_P899L] ? 0.634

Hello, I would appreciate it if you could give phosphorylation enrichment for each entry below.
1. PDSVDYPKKGY [CTSK_Y121_R122P]
2. STKPQYQPGEN [SRC_Y530_E527K]
3. VVEVTYDDVPI [FLNB_Y1308]
4. EGNEQYEGFCV [GRIA3_Y451_R450Q_YF]
5. GDAMLYFPSVS [GPR143_Y177_A173D_YF]
6. QSSEGYGLGDR [KIAA1210_Y564]
7. ITLPIYTKESE [ANK2_Y1455]
8. KVDKEYEVHVR [GHR_Y226_R229H]

1. 0.529
2. 0.363
3. 1.57
4. 0.962
5. 0.511
6. 0.731
7. 0.641
8. 0.68

Hello, I would appreciate it if you could give phosphorylation enrichment for each entry below.
1. STSFDYCRVPM [BST2_Y8_YF]
2. QIGRKYKKVRF [F8_Y442_R437Q]
3. MPVDGYISGLL [PAK6_Y81]
4. SDFSRYARTSI [TERT_Y949_S948R_YF]
5. DASAVYLRDFQ [PLCG2_Y242_H244R]
6. PESCLYKESWL [IQGAP2_Y630]
7. VVDVTYDDVPI [FLNB_Y1308_E1305D]
8. WDLPEYSFKDP [ITGA3_Y237_S235P_YF]

1. 9.03
2. 0.902
3. 0.447
4. 0.463
5. 0.506
6. 1.29
7. 2.21
8. 0.558

Hello, I would appreciate it if you could give phosphorylation enrichment for each entry below.
1. RASDYYSQQMA [GBP6_Y334_A331S]
2. QKLPSYILENN [VPS13B_Y2774]
3. TQKLAYVELQQ [CENPF_Y700_M701V]
4. PRAEWYRDDLL [MYOM2_Y317_V321L]
5. EFQKKYSDADI [CKAP5_Y1860_K1857Q_YF]
6. KALKQYRASPS [DDX27_Y763_G766S]
7. TKDTIYKQPMF [GBA_Y451_F450I]

[0.966, 0.787, 0.507, 0.692, 0.399, 0.312, 0.503]
